Target: Mitogen-activated protein kinase kinase kinase kinase 3 (Homo sapiens, UniProt Q8IVH8)
Sequence (Q8IVH8 whole entry): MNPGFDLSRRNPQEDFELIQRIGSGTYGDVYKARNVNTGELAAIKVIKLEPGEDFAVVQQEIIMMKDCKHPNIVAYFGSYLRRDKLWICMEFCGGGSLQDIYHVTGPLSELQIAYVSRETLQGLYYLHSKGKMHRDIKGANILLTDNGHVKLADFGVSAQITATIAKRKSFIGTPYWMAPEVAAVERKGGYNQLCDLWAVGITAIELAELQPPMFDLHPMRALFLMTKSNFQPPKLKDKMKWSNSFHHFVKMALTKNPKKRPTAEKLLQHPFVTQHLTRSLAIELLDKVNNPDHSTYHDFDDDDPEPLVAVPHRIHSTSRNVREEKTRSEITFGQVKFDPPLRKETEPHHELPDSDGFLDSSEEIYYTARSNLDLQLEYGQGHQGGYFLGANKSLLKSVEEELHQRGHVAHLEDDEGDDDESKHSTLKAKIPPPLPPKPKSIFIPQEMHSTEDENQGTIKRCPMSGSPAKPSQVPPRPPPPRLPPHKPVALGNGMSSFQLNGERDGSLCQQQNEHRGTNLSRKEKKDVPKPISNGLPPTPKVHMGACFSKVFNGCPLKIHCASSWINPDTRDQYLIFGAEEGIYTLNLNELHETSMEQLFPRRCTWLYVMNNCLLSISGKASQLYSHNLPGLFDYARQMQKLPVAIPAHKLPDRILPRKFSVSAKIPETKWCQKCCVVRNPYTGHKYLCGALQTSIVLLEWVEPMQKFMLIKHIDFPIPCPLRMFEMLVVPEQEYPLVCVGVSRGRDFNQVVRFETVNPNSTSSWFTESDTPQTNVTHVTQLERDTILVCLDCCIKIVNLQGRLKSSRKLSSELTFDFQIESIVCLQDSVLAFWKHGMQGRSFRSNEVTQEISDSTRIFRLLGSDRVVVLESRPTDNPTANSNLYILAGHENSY
Assay: Inhibition of GLK (unknown origin)
quantity-kind: IC50
# do not omit the unit; it follows the number

Report IC50 on Mitogen-activated protein kinase kinase kinase kinase 3 (Homo sapiens, UniProt Q8IVH8) for this entry: `COc1cc(Nc2ccc3c(n2)CN(C)C32CCCC2)c(C(N)=O)nc1-c1cccc2c1ncn2C`
162 nM

Report IC50 on Mitogen-activated protein kinase kinase kinase kinase 3 (Homo sapiens, UniProt Q8IVH8) for this entry: `COc1cc(Nc2ccc3c(n2)CN(C)C32CCN(C3COC3)CC2)c(C(N)=O)nc1-c1cccc2c1ncn2C`
325 nM

Report IC50 on Mitogen-activated protein kinase kinase kinase kinase 3 (Homo sapiens, UniProt Q8IVH8) for this entry: `CCN1Cc2nc(Nc3cc(OC)c(-c4cccc5c4ncn5C)nc3C(N)=O)ccc2C12CCOCC2`
239 nM

Report IC50 on Mitogen-activated protein kinase kinase kinase kinase 3 (Homo sapiens, UniProt Q8IVH8) for this entry: `COc1cc(Nc2ccc3c(n2)CN(C)C32CCOCC2)c(C(N)=O)nc1-c1cncc2c1ccn2C`
95 nM

Report IC50 on Mitogen-activated protein kinase kinase kinase kinase 3 (Homo sapiens, UniProt Q8IVH8) for this entry: `COc1cc(Nc2ccc3c(n2)CN(C)C32CCOCC2)c(C(N)=O)nc1-c1ccnc2c1ccn2C`
27 nM
